Functional assay IL-8 values, listed per item
# system_under_test: T1, CD134 expressed on the cell surface of HT1080_OX40 cells (human, UniProt P43489 29-277); further: test concentration or dose not given here
# T1 sequence (looked up): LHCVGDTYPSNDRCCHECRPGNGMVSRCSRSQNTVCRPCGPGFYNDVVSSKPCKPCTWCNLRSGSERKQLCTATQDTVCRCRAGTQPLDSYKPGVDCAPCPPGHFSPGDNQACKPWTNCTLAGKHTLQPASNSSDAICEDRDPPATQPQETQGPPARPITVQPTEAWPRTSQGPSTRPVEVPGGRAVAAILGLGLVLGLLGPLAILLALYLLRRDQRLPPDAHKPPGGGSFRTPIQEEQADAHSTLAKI
# experiment_description: cell-based or functional assay
Put down the number, then write its unit next to it.

1. P018.S.11.A.H04 (antibody, V domains shown, V regions on human Ig constant parts; also called AB134_47) VH: QEQLEESGGDLVKPGASLTLTCTASGLSFSGSYWICWVRQAPGKGLEWIGCITAGISGSTYYASWAKGRFTISKTSSTTVTLQMTSLTAADTATYFCARERTGGWGDFNLWGPGTLVTVSS VL: DVVMTQTPASVEAAVGGTVTIKCQASQSITTYLSWYQQKPGQPPKLLIYLASTLESGVPSRFKGSRSGTEYTLTISDLESADAATYYCQCTDGGINHWFWAFGGGTEVVVK | 0.61 abs. corr.

Functional assay IL-8 for P018.S.11.A.E02 (antibody, V domains shown, V regions on human Ig constant parts; also called AB134_33) VH: QEQLEESGGDLVKPEGSLTLTCTASGFSFNVDYYMCWVRQAPGKGLEWIACIYVGSEGSTYYASWAKGRFTISKTSSTTVTLQMTSLTAADTATYFCARHYAGYAGYNYATDYYFTLWGPGTLVTVSS VL: DIVMTQTPSSVSAGVGGTVTINCQASQSVTNFLSWYQQKPGQPPKLLIYGASTLASGVPSRFKGSGSGTEFTLTISGMKAEDVATYYCQSGYYSATFGAGTKVEIK is 0.214 abs. corr.
